target: UniProt Q8NER1; test: Acid activation assay (pH 5.0, FLIPR intracellular Ca2+); format: cell-based; settings: 37.5 μM compound; percentage of the maximal pH 5.0-induced response remaining; read-out: hTRPV1 H+ (max % remain)
Sequence (Q8NER1 whole entry): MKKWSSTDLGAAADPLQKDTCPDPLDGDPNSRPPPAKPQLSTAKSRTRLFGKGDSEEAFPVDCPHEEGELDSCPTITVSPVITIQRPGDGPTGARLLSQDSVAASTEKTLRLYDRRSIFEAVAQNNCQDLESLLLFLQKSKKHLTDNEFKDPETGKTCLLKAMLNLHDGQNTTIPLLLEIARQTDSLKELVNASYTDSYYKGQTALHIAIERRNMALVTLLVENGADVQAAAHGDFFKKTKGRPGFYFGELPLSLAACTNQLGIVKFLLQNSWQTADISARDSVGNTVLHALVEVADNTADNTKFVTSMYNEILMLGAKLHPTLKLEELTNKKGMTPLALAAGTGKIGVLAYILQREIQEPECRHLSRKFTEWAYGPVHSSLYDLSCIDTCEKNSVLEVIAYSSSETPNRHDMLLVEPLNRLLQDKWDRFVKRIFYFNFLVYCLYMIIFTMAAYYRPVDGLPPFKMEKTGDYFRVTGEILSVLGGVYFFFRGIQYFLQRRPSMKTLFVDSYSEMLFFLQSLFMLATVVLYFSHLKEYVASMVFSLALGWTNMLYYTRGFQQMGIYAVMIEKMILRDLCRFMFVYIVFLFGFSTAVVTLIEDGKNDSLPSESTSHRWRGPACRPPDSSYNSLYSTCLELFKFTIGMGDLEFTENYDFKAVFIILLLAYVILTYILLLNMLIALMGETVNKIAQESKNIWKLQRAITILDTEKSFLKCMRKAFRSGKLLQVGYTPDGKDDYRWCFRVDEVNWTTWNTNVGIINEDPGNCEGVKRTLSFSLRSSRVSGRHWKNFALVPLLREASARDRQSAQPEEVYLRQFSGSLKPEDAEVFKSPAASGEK

[
  {
    "record-smiles": "CS(=O)(=O)Nc1ccc(CNC(=O)N[C@@H]2CCOc3cc(OC(F)(F)F)ccc32)cc1F",
    "remaining activity at 37.5 µM, %": 84
  },
  {
    "record-smiles": "C[C@@]1(C(F)F)C[C@@H](NC(=O)NCc2ccc(NS(C)(=O)=O)c(F)c2)c2ccccc2O1",
    "remaining activity at 37.5 µM, %": 64
  },
  {
    "record-smiles": "CC(C)(C)c1ccc2c(c1)CC[C@H]2NC(=O)NCc1ccc(NS(C)(=O)=O)c(F)c1",
    "remaining activity at 37.5 µM, %": 22
  },
  {
    "record-smiles": "CS(=O)(=O)Nc1ccc(CNC(=O)N[C@@H]2CC(CF)(CF)Oc3c(F)cccc32)cc1F",
    "remaining activity at 37.5 µM, %": 68
  },
  {
    "record-smiles": "CS(=O)(=O)Nc1ccc(CNC(=O)N[C@@H]2CC(CF)(CF)Oc3cc(F)ccc32)cc1F",
    "remaining activity at 37.5 µM, %": 43
  },
  {
    "record-smiles": "CC1(C)C[C@@H](NC(=O)NCc2ccc(NS(C)(=O)=O)c(F)c2)c2ccc(C(F)(F)F)cc2O1",
    "remaining activity at 37.5 µM, %": 70
  },
  {
    "record-smiles": "CS(=O)(=O)Nc1ccc(CNC(=O)N[C@@H]2CCOc3ccccc32)cc1F",
    "remaining activity at 37.5 µM, %": 87
  },
  {
    "record-smiles": "CC1(C)C[C@@H](NC(=O)NCc2ccc(NS(C)(=O)=O)c(F)c2)c2ccc(F)cc2O1",
    "remaining activity at 37.5 µM, %": 18
  },
  {
    "record-smiles": "CC1(C)C[C@@H](NC(=O)NCc2ccc(NS(C)(=O)=O)c(F)c2)c2ccc(F)c(Cl)c2O1",
    "remaining activity at 37.5 µM, %": 24
  },
  {
    "record-smiles": "CS(=O)(=O)Nc1ccc(CNC(=O)N[C@@H]2CC3(CCC3)Oc3ccc(F)cc32)cc1F",
    "remaining activity at 37.5 µM, %": 69
  },
  {
    "record-smiles": "C[C@]1(CF)C[C@@H](NC(=O)NCc2ccc(NS(C)(=O)=O)c(F)c2)c2ccc(C(F)(F)F)cc2O1",
    "remaining activity at 37.5 µM, %": 63
  },
  {
    "record-smiles": "CCC1(CC)C[C@@H](NC(=O)NCc2ccc(NS(C)(=O)=O)c(F)c2)c2ccc(OC(F)(F)F)cc2O1",
    "remaining activity at 37.5 µM, %": 82
  },
  {
    "record-smiles": "C[C@@]1(CF)C[C@@H](NC(=O)NCc2ccc(NS(C)(=O)=O)c(F)c2)c2ccc(Cl)cc2O1",
    "remaining activity at 37.5 µM, %": 41
  },
  {
    "record-smiles": "CS(=O)(=O)Nc1ccc(CNC(=O)N[C@@H]2CCOc3ccc(F)cc32)cc1F",
    "remaining activity at 37.5 µM, %": 84
  },
  {
    "record-smiles": "C[C@@]1(C(F)(F)F)C[C@@H](NC(=O)NCc2ccc(NS(C)(=O)=O)c(F)c2)c2ccccc2O1",
    "remaining activity at 37.5 µM, %": 25
  },
  {
    "record-smiles": "C[C@]1(C(F)(F)F)C[C@@H](NC(=O)NCc2ccc(NS(C)(=O)=O)c(F)c2)c2ccccc2O1",
    "remaining activity at 37.5 µM, %": 58
  },
  {
    "record-smiles": "CS(=O)(=O)Nc1ccc(CNC(=O)N[C@@H]2CC(CF)(CF)Oc3cc(C(F)(F)F)ccc32)cc1F",
    "remaining activity at 37.5 µM, %": 72
  },
  {
    "record-smiles": "CC1(C)C[C@@H](NC(=O)NCc2ccc(NS(C)(=O)=O)c(F)c2)c2ccccc2O1",
    "remaining activity at 37.5 µM, %": 74
  },
  {
    "record-smiles": "C[C@@]1(CF)C[C@@H](NC(=O)NCc2ccc(NS(C)(=O)=O)c(F)c2)c2ccc(C(F)(F)F)cc2O1",
    "remaining activity at 37.5 µM, %": 64
  },
  {
    "record-smiles": "CC1(C)C[C@@H](NC(=O)NCc2ccc(NS(C)(=O)=O)c(F)c2)c2cc(F)ccc2O1",
    "remaining activity at 37.5 µM, %": 71
  },
  {
    "record-smiles": "CCC1(CC)C[C@@H](NC(=O)NCc2ccc(NS(C)(=O)=O)c(F)c2)c2ccc(Cl)c(Cl)c2O1",
    "remaining activity at 37.5 µM, %": 24
  },
  {
    "record-smiles": "CCC1(CC)C[C@@H](NC(=O)NCc2ccc(NS(C)(=O)=O)c(F)c2)c2ccc(Cl)cc2O1",
    "remaining activity at 37.5 µM, %": 27
  },
  {
    "record-smiles": "CC1(C)C[C@@H](NC(=O)NCc2ccc(NS(C)(=O)=O)c(F)c2)c2ccc(C(F)(F)F)nc2O1",
    "remaining activity at 37.5 µM, %": 82
  },
  {
    "record-smiles": "C[C@]1(C(F)F)C[C@@H](NC(=O)NCc2ccc(NS(C)(=O)=O)c(F)c2)c2ccccc2O1",
    "remaining activity at 37.5 µM, %": 71
  },
  {
    "record-smiles": "CCC1(CC)C[C@@H](NC(=O)NCc2ccc(NS(C)(=O)=O)c(F)c2)c2cc(F)ccc2O1",
    "remaining activity at 37.5 µM, %": 56
  },
  {
    "record-smiles": "CS(=O)(=O)Nc1ccc(CNC(=O)N[C@@H]2CC(CF)(CF)Oc3cc(Cl)ccc32)cc1F",
    "remaining activity at 37.5 µM, %": 73
  },
  {
    "record-smiles": "CS(=O)(=O)Nc1ccc(CNC(=O)N[C@@H]2CCc3cc(C(F)(F)F)ccc32)cc1F",
    "remaining activity at 37.5 µM, %": 88
  },
  {
    "record-smiles": "CCC1(CC)C[C@@H](NC(=O)NCc2ccc(NS(C)(=O)=O)c(F)c2)c2cccc(F)c2O1",
    "remaining activity at 37.5 µM, %": 27
  },
  {
    "record-smiles": "CS(=O)(=O)Nc1ccc(CNC(=O)N[C@@H]2CCOc3cc(C(F)(F)F)ccc32)cc1F",
    "remaining activity at 37.5 µM, %": 88
  },
  {
    "record-smiles": "CS(=O)(=O)Nc1ccc(CNC(=O)N[C@@H]2CC(CF)(CF)Oc3ccccc32)cc1F",
    "remaining activity at 37.5 µM, %": 59
  }
]
